- Test system: Klebsiella pneumoniae
- assay_remarks: Broth microdilution MIC (Example 12)
- Format: cell-based
- measurement_setup: K. pneumoniae CDC 112; KPC
property: MIC (µg/mL)
Give just the numeric value; µg/mL need not be written.

# structure_smiles, result_units, MIC
rows = [
    ("NCC[C@H](O)C(=O)N[C@@H]1C[C@H](N)[C@@H](O[C@H]2O[C@H](CN)[C@@H](O)[C@H](O)[C@H]2O)[C@H](O)[C@H]1O[C@H]1O[C@H](CO)[C@@H](O)[C@H](N)[C@H]1O", "µg/mL", 16),
]

Next compound, please.
Query C[C@H]1COc2c(N3CCN(C)CC3)c(F)cc3c(=O)c(C(=O)O)cn1c23 yields MIC of 4

###

- assay_remarks: Particle size distribution of BisEDT samples vs processing conditions
- Format: physicochemical
- measurement_setup: particle size distribution of BisEDT samples
The entries below are paired with their reported D(90).
Number only, in μm; omit the unit.

Consider the worked cases shown below.
# compound, D(90) [μm]
data = [
    ("C1C[S][Bi]([S]CC[S][Bi]2[S]CC[S]2)[S]1 [Sample 12]", 2.4),
    ("C1C[S][Bi]([S]CC[S][Bi]2[S]CC[S]2)[S]1 [Sample 10]", 1.7),
    ("C1C[S][Bi]([S]CC[S][Bi]2[S]CC[S]2)[S]1 [Sample 7]", 1.6),
    ("C1C[S][Bi]([S]CC[S][Bi]2[S]CC[S]2)[S]1 [Sample 1]", 5.9),
]

Noted for C1C[S][Bi]([S]CC[S][Bi]2[S]CC[S]2)[S]1 [Sample 14] : its D(90) reads 2.1

C1C[S][Bi]([S]CC[S][Bi]2[S]CC[S]2)[S]1 [Sample 13] has a reported D(90) of 2.1

Sure, the documented D(90) for C1C[S][Bi]([S]CC[S][Bi]2[S]CC[S]2)[S]1 [Sample 3] is 4.5

Consider C1C[S][Bi]([S]CC[S][Bi]2[S]CC[S]2)[S]1 [Sample 5] . Its measured D(90) is 1.6

Sample C1C[S][Bi]([S]CC[S][Bi]2[S]CC[S]2)[S]1 [Sample 11] ; D(90) observed: 2.4

Reported D(90) ( C1C[S][Bi]([S]CC[S][Bi]2[S]CC[S]2)[S]1 [Sample 8] ) = 1.8

C1C[S][Bi]([S]CC[S][Bi]2[S]CC[S]2)[S]1 [Sample 2] yielded D(90) of 3.9

Looking up C1C[S][Bi]([S]CC[S][Bi]2[S]CC[S]2)[S]1 [Sample 15] , I found its D(90) recorded as 1.6

Record C1C[S][Bi]([S]CC[S][Bi]2[S]CC[S]2)[S]1 [Sample 4] . Reported D(90): 3.1

The recorded D(90) for C1C[S][Bi]([S]CC[S][Bi]2[S]CC[S]2)[S]1 [Sample 9] is 1.9

Kindly note the recorded D(90) for C1C[S][Bi]([S]CC[S][Bi]2[S]CC[S]2)[S]1 [Sample 6] , which is 1.8

###

- assay_remarks: Particle size distribution of BisEDT samples vs processing conditions
- Type: physicochemical
- measurement_setup: crystalline BisEDT samples
Entries annotated with measured D[4, 3]
Hi! Could you send only the number? It should be in μm, unit omitted.

Answered examples (4):
# compound, D[4, 3] [μm]
measured = [
    ("C1C[S][Bi]([S]CC[S][Bi]2[S]CC[S]2)[S]1 [Sample 5]", 0.86),
    ("C1C[S][Bi]([S]CC[S][Bi]2[S]CC[S]2)[S]1 [Sample 8]", 1.0),
    ("C1C[S][Bi]([S]CC[S][Bi]2[S]CC[S]2)[S]1 [Sample 6]", 0.98),
    ("C1C[S][Bi]([S]CC[S][Bi]2[S]CC[S]2)[S]1 [Sample 2]", 2.0),
]

Now, please, on to the next compound.
// sample C1C[S][Bi]([S]CC[S][Bi]2[S]CC[S]2)[S]1 [Sample 3] , its D[4, 3] was 2.3
